# Test system: Staphylococcus aureus
# setup conditions: Concentration 32 ug.mL-1; ASSAY_TEST Inhibition of Bacterial Growth; detection method Absorption (OD600); MEDIA CAMHB; plate type 384well; NBS; CORNING #3640; time 18 hr
Results with a measured potency or affinity are listed apart.
measured attribute: Inhibition (%)
The answer is to be given in %; state only the numeric part.

Value lookup for Inhibition; key = CN1C/C(=C\Br)n2c1c(C#N)cc(C#N)c2=O
16.92

Next compound: O=C(Cc1ccccc1)N/N=C/c1c[nH]c2ccccc12
9.24

Further, for CCCCCCC(C)NNC(=O)c1cc2ccccc2[nH]1 (stereo unspecified) ?
-0.84

Same question, N#Cc1cc2c(N)c3c(nc2nc1Cl)CCN(Cc1ccccc1)C3 this time
31.61

Same for CCOC(=O)C1=C(C)OC(N)=C(C#N)C1c1ccncc1 (stereo unspecified)
26.79

Would you kindly repeat that for COc1ccccc1C1c2ccc3ccccc3c2Oc2nc3c(c(N)c21)CCCC3 (stereo unspecified) ?
0.62

And what about the compound COc1nc(N)c(C#N)cc1C#N ?
18.25

Entry to check: Cn1cc(/C=C2\NC(=S)NC2=O)c2ccccc21
2.93

How about this compound: COc1cccc(C2c3c(nc4c(c3N)CCCC4)Oc3ccc4ccccc4c32)c1 (stereo unspecified)
4.84

Note, next up: CC(=O)N1CC(=O)NC1=S
18.21

Follow-up entry: CN(C)c1nc(N)c(C#N)cc1C#N
20.41

What do you have for Br.C#CCNCC ?
25.79

Moving on to N#Cc1cc(C#N)c(NCCO)nc1N
40.77

Now this one: COc1nc2ccccc2cc1C=O
17.37

Now the same for COc1cc(C2c3c(nc4c(c3N)CCC4)Oc3ccc4ccccc4c32)ccc1O (stereo unspecified)
11.79

Repeat for the following compound: CCOC(=O)c1c(C)nc2nc3c(c(N)c2c1-c1ccc(Cl)cc1)CCCCC3
2.05

Repeat with CCOC(=O)C1=C(C)OC(N)=C(C#N)C1c1cccnc1 (stereo unspecified)
-6.34

Request: CNC(=O)c1cc2cc(OC)ccc2[nH]1
5.66

Then this compound: O=C(N/N=C/c1c[nH]c2ccccc12)c1cc2ccccc2[nH]1
11.07

Try this compound too: O=C(N/N=C/c1cccc(Cl)c1)c1cc2ccccc2[nH]1
-16.68

Same thing, different compound: Cn1cc(C=O)c2ccccc21
-0.04

Similarly, Cl.OCC1CCN(Cc2ccccc2)CC1 ?
26.15

Please do the same for OCc1c(-c2ccc(Br)cc2)nc2ccccn12 as well.
6.46

Thanks! And C=C=CCN(C)Cc1cc2ccccc2n1C.O=C(O)C(=O)O ?
31.58

Would you kindly repeat that for Cl.Nc1c2c(nc3c1C(c1ccccc1)c1c(ccc4ccccc14)O3)CCCC2 (stereo unspecified) ?
8.92

Also need COc1ccc2cc(C3C4=C(CC(C)(C)CC4=O)Oc4nc5c(c(N)c43)CCCC5)c(Cl)nc2c1 (stereo unspecified) , thanks.
25.96

* * *

Provide the recorded Inhibition for the entries that follow.
# System: Escherichia coli
# setup conditions: Concentration 32 ug.mL-1; ASSAY_TEST Inhibition of Bacterial Growth; detection method Absorption (OD600); MEDIA CAMHB; plate type 384well; NBS; CORNING #3640; time 18 hr
Measured potencies and affinities stand elsewhere.
Use % as the unit, but write only the number.

Query (compound): CC1Cc2c(Cl)nc3nc4c(c(N)c3c2NC1=O)CCCC4 (centres undefined) ; field requested: Inhibition
-7.98

Continue with COc1cc(C2C(C#N)=C(N)Oc3c2ccc2ccccc32)ccc1O (centres undefined)
-13.64

Can you check O=c1oc2cc(O)ccc2cc1-c1ccccc1 next?
2.31

Same for C#CCN(C)c1nc(NCCCC2CCN(Cc3ccccc3)CC2)c(C#N)cc1C#N
-10.35

Also need O=C(N[C@H]1CC[C@H](O)CC1)c1ccccc1 , thanks.
-10.8

Same again, this time with COC(=O)/C(=C/c1ccc(O)cc1)NC(=O)c1ccccc1
15.96

Try the compound COc1cccc(C2c3c(nc4c(c3N)CCCC4)Oc3ccc4ccccc4c32)c1 (centres undefined)
-1.02

Please do the same for N#CC1=C(Cl)Oc2c(ccc3ccccc23)C1c1ccc([N+](=O)[O-])cc1 (centres undefined) as well.
-24.25

Likewise for CCOC(=O)c1cc2cc(O)ccc2n1C(=O)OC(C)(C)C ?
10.33

Would you mind doing Cn1c(C(=O)NCc2ccccc2)cc2cc(OCCCC3CCN(Cc4ccccc4)CC3)ccc21 as well?
-9.22

Also, Cn1c(CO)cc2cc(OCCCC3CCN(Cc4ccccc4)CC3)ccc21 please.
-17.9

# iterate: C=C=CCN(C)Cc1cc2ccccc2n1C.O=C(O)C(=O)O
-19.52

Further, for CC1Cc2c(Br)nc3nc4c(c(N)c3c2NC1=O)CCCC4 (centres undefined) ?
-12.78

And what about the compound COc1ccccc1C1c2ccc3ccccc3c2OC(=NBr)C1(Br)C#N (centres undefined) ?
-9.86

Now try CCOC(=O)c1c(C)[nH]c(=O)c(C#N)c1-c1ccccc1 .
-18.87

Same again, this time with CC(=O)Oc1cccc(C=C2N=C(c3ccccc3)OC2=O)c1
13.2

Try this compound next: COc1nc2nc3c(c(N)c2cc1C#N)CCCC3
-3.63

Also COc1ccccc1C1c2c(ccc3ccccc23)OC(=N)C1(Br)C#N (centres undefined) , if possible.
-9.16

Next: Cc1cnc2ccc(Br)cn12
6.35

Subsequent entry: Clc1ccc(-c2cn3ccccc3n2)cc1
15.37

Also O=C1NC(=O)C(=Cc2ccccc2)N1 ?
11.12

Now the same for CCOC(=O)C1=C(C)OC(N)=C(C#N)C1c1cccnc1 (centres undefined)
-11.43

Param item: CC#CCN(C)Cc1cc2cc(OCc3ccccc3)ccc2n1C.O=C(O)C(=O)O
5.45

Queued: N#CC1=C(N)Oc2ccc3ccccc3c2C1c1ccccc1 (centres undefined)
-6.38

* * *

# Tested on: Escherichia coli
# setup conditions: Concentration 32 ug.mL-1; ASSAY_TEST Inhibition of Bacterial Growth; detection method Absorption (OD600); MEDIA CAMHB; plate type 384well; NBS; CORNING #3640; time 18 hr
Results with a measured potency or affinity are listed apart.
measured attribute: Inhibition (%)
Numeric answer only, unit % assumed.

Please give the measured Inhibition for this compound: CCOC(=O)c1cc2ccccc2[nH]1
13.65

Also check CCOC(=O)C1=C(C)OC(N)=C(C#N)C1c1ccc([N+](=O)[O-])cc1 (stereo not given)
-9.87

Please do the same for N#CC1=C(N)Oc2c(ccc3ccccc23)C1c1ccc(O)cc1 (stereo not given) as well.
-18.15

Proceed to CCOC(=O)C1=C(C)Nc2nc3c(c(N)c2C1c1cccc(OC)c1)CCCC3 (stereo not given)
-19.26

Then what about the compound O=C(Cc1c[nH]c2ccccc12)NNCc1ccccc1 ?
-10.21

Next compound: Cc1nc2c3cnn(-c4ccccc4)c3ncn2n1
11.4

And Cl.NC1(C(=O)O)CC1c1cccc(Cl)c1 (stereo not given) ?
12.02

Can you check Cc1ccc(/C=C(\C#N)C(=O)c2ccccc2)cc1 next?
15.2

# repeat for N#Cc1c(Cl)nc(N2CCCCC2)c(C#N)c1-c1ccccc1
17.72

What about CC(C)CC(C)NNC(=O)c1cc2ccccc2[nH]1 (stereo not given) ?
-7.16

* * *

Please respond with reported Inhibition for every item in the list.
# Test system: Staphylococcus aureus
# setup conditions: Concentration 32 ug.mL-1; ASSAY_TEST Inhibition of Bacterial Growth; detection method Absorption (OD600); MEDIA CAMHB; plate type 384well; NBS; CORNING #3640; time 18 hr
Measured potencies and affinities stand elsewhere.
Please reply with the bare figure in % and do not write the unit itself.

# input compound: COc1ccc2cc(C3C4=C(CC(C)(C)CC4=O)Oc4nc5c(c(N)c43)CCC5)c(Cl)nc2c1 (stereo unspecified) ; wanted: its Inhibition
18.17

Param item: N#Cc1cc(C#N)c(N2CCCCC2)nc1Cl
15.2

Also check Cc1nc2c3cnn(-c4ccccc4)c3nc(C)n2n1
14.43

Next record, please: CS(=O)(=O)O[C@H]1CC[C@H](OS(C)(=O)=O)CC1
29.12

Entry CCOC(=O)C1=C(C)Nc2nc3c(c(N)c2C1c1cccc(OC)c1)CCCC3 (stereo unspecified) please
17.18

How about this compound: CC(=O)Oc1ccc(C=C2N=C(C)OC2=O)cc1
8.81

* * *

# Test system: Staphylococcus aureus
# setup conditions: Concentration 32 ug.mL-1; ASSAY_TEST Inhibition of Bacterial Growth; detection method Absorption (OD600); MEDIA CAMHB; plate type 384well; NBS; CORNING #3640; time 18 hr
Results with a measured potency or affinity are listed apart.
measured attribute: Inhibition (%)
Return type: number; implicit unit %.

Any idea what its Inhibition is? The compound is CC(=O)/C=C/C1CCN(Cc2ccccc2)CC1
28.47

Same for COc1cccc(-c2c(C#N)c(=O)oc3c2ccc2ccccc23)c1
13.24

Same lookup for COc1nc(N)c(C#N)c(-c2ccccc2)c1C#N , please.
26.81

Another compound: CNN=C1N=C(SCc2ccccc2)SC1=O
8.05

Again, but for Cc1[nH]nc2c1C(c1cccc([N+](=O)[O-])c1)C(C#N)=C(N)O2 (centres undefined)
7.57

Another: COc1ccccc1C1C(C#N)=C(N)Oc2[nH]nc(C)c21 (centres undefined)
9.32

Let us now turn to CCOC(=O)C1=C(C)Nc2nc3c(c(N)c2C1c1ccc([N+](=O)[O-])cc1)CCCC3.Cl (centres undefined)
34.25

// next record N#CC1=C(N)Oc2c(ccc3ccccc23)C1c1ccccc1 (centres undefined)
23.38

Further, for O=C1C=C(Nc2ccccc2)C(=O)N1c1ccccc1 ?
3.04

Item: COC(=O)C(=Cc1ccc(OC)cc1)NC(C)=O
16.29

Note, next up: N#Cc1c(Cl)nc(NC2CCN(Cc3ccccc3)CC2)c(C#N)c1-c1ccccc1
-0.92

Follow-up entry: CC(C)(C)OC(=O)N[C@H]1CC[C@H](O)CC1
7.19

Lookup Cc1cnc2ccc(Cl)cn12
9.7

Then what about the compound COc1ccc(C2C(C#N)=C(N)Oc3c2ccc2ccccc32)cc1 (centres undefined) ?
21.39

# iterate: CCOC(=O)C1=C(C)OC(N)=C(C#N)C1c1ccc([N+](=O)[O-])cc1 (centres undefined)
16.31

// query: N#CC1=C(N)Oc2ccc3ccccc3c2C1c1ccccc1[N+](=O)[O-] (centres undefined)
40.78

And for CN(C)c1cccc(C(=O)c2cccc(N(C)C)c2)c1 ?
23.31

Please do the same for C/C(=N\NC(=O)c1cc2ccccc2n1Cc1ccccc1)C1CC1 as well.
7.87

Thanks! And COc1cccc(C2C(C#N)=C(N)Oc3c2ccc2ccccc32)c1 (centres undefined) ?
23.52

Next: COc1ccc(C2c3c(ccc4ccccc34)OC(=NBr)C2(Br)C#N)cc1OC (centres undefined)
13.88

Continue with N#Cc1c(Cl)nc(Cl)c(C#N)c1-c1ccccc1
37.97

Another compound to look at: O=C(Cc1c[nH]c2ccccc12)N/N=C/c1ccco1
4.9

Repeat with COc1ccc(-c2cc(-c3cc4ccc(F)cc4nc3Cl)cc(=O)[nH]2)cc1
24.97

Then this compound: CC(=O)Nc1n[nH]c2nc(N)c(C#N)c(-c3ccccc3)c12
38.27
